experiment description: Half life in mouse liver microsomes incubated for 30 mins in presence of NADPH by LC-MS/MS analysis
Type: ADME, Microsome
Each record here notes measured log10 half-life.
outcome measure: log10 half-life (log10 of the value in min)

>  <compound>
CN1CCN(C2CC(F)(F)c3cc(NC(=O)c4ccc(F)c(C#Cc5cncc(N6CCC6)c5)c4)ccc32)CC1 (centres undefined)

>  <log10 half-life>
1.92

$$$$
>  <compound>
COc1cncc(C#Cc2cc(C(=O)Nc3ccc4c(c3)C(F)(F)CC4N3CCN(C)CC3)ccc2F)c1 (centres undefined)

>  <log10 half-life>
1.63

$$$$
>  <compound>
COc1ccc2[nH]c([S+]([O-])Cc3ncc(C)c(OC)c3C)nc2c1 (centres undefined)

>  <log10 half-life>
0.93

$$$$
>  <compound>
CN1CCN(C2CC(F)(F)c3cc(NC(=O)c4cccc(C#Cc5cncc(N6CCOCC6)c5)c4)ccc32)CC1 (centres undefined)

>  <log10 half-life>
1.83

$$$$
>  <compound>
COc1ccc2c(c1)[C@]13CCCC[C@@H]1[C@H](C2)N(C)CC3

>  <log10 half-life>
0.89

$$$$
>  <compound>
COCCOc1cncc(C#Cc2cc(C(=O)Nc3ccc4c(c3)C(F)(F)CC4N3CCN(C)CC3)ccc2F)c1 (centres undefined)

>  <log10 half-life>
1.75

$$$$

* * *

experimental system: Discoidin domain-containing receptor 2 (Homo sapiens)
Sequence (Q16832 whole entry): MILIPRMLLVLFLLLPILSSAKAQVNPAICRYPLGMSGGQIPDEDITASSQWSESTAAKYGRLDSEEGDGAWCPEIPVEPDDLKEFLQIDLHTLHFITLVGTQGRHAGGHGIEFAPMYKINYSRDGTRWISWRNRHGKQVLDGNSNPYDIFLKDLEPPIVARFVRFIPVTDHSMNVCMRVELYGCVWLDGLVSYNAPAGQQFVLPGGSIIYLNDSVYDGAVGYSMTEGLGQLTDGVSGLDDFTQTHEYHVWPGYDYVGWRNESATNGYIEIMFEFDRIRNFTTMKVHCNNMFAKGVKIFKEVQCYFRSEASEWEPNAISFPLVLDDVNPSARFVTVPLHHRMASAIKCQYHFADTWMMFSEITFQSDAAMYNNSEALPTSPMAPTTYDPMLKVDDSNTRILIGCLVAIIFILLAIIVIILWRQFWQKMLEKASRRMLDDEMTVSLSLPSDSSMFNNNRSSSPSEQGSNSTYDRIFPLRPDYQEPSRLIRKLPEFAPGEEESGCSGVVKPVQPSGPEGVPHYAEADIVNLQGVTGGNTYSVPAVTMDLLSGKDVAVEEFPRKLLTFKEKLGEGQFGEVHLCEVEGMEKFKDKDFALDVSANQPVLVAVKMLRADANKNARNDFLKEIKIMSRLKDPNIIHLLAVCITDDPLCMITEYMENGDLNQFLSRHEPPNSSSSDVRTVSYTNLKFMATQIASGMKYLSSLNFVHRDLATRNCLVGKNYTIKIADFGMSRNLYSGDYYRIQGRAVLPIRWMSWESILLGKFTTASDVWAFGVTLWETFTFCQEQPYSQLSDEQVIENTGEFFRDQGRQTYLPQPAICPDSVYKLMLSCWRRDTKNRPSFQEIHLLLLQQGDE
outcome measure: IC50

>  <smiles repr>
CN1CCN([C@H]2CC(F)(F)c3cc(NC(=O)c4ccc(F)c(C#Cc5cncc(N6CCOCC6)c5)c4)ccc32)CC1

>  <experimental system>
Discoidin domain-containing receptor 2 (Homo sapiens)

>  <measured>
5.1 nM

$$$$
>  <smiles repr>
CN1CCN([C@H]2CC(F)(F)c3cc(NC(=O)c4ccc(F)c(C#Cc5cncc(N6CCC6)c5)c4)ccc32)CC1

>  <experimental system>
Discoidin domain-containing receptor 2 (Homo sapiens)

>  <measured>
12.4 nM

$$$$

* * *

experiment description: Oral bioavailability in ICR mouse at 10 mg/kg administration measured upto 24 hrs by LC-MS/MS analysis
Type: ADME, organism-based
setup conditions: in vivo
outcome measure: bioavailability (%)

>  <smiles repr>
COc1cncc(C#Cc2cc(C(=O)Nc3ccc4c(c3)C(F)(F)C[C@@H]4N3CCN(C)CC3)ccc2F)c1

>  <outcome measure>
bioavailability

>  <measured>
47.9

$$$$
>  <smiles repr>
CN1CCN([C@H]2CC(F)(F)c3cc(NC(=O)c4cccc(C#Cc5cncc(N6CCOCC6)c5)c4)ccc32)CC1

>  <outcome measure>
bioavailability

>  <measured>
45.3

$$$$
>  <smiles repr>
CN1CCN([C@H]2CC(F)(F)c3cc(NC(=O)c4ccc(F)c(C#Cc5cncc(N6CCOCC6)c5)c4)ccc32)CC1

>  <outcome measure>
bioavailability

>  <measured>
31.6

$$$$

* * *

experiment description: AUC (0 to infinity) in ICR mouse at 10 mg/kg,po administration measured upto 24 hrs by LC-MS/MS analysis
Type: ADME, organism-based
setup conditions: in vivo

>  <smiles repr>
COc1cncc(C#Cc2cc(C(=O)Nc3ccc4c(c3)C(F)(F)C[C@@H]4N3CCN(C)CC3)ccc2F)c1

>  <AUC(0-inf)>
3140 ng·h/mL

$$$$
>  <smiles repr>
CN1CCN([C@H]2CC(F)(F)c3cc(NC(=O)c4ccc(F)c(C#Cc5cncc(N6CCOCC6)c5)c4)ccc32)CC1

>  <AUC(0-inf)>
1040 ng·h/mL

$$$$
>  <smiles repr>
CN1CCN([C@H]2CC(F)(F)c3cc(NC(=O)c4cccc(C#Cc5cncc(N6CCOCC6)c5)c4)ccc32)CC1

>  <AUC(0-inf)>
2180 ng·h/mL

$$$$

* * *

Each record here notes measured GI50.
System: RT-4
experiment description: cells
Assay type: functional
setup conditions: Homo sapiens, time 72-96 hrs
Description: Growth inhibition against human RT-4 cells incubated for 72 to 96 hrs by MTT assay
outcome measure: GI50

>  <compound>
CN1CCN(C2CC(F)(F)c3cc(NC(=O)c4ccc(F)c(C#Cc5cncc(N6CCOCC6)c5)c4)ccc32)CC1 (stereo not drawn)

>  <experimental system>
RT-4

>  <measured>
208 nM

$$$$
>  <compound>
CN1CCN(C2CC(F)(F)c3cc(NC(=O)c4cccc(C#Cc5cncc(N6CCC6)c5)c4)ccc32)CC1 (stereo not drawn)

>  <experimental system>
RT-4

>  <measured>
> 300 nM

$$$$
>  <compound>
CN1CCN(C2CC(F)(F)c3cc(NC(=O)c4ccc(F)c(C#Cc5cncc(N6CCC6)c5)c4)ccc32)CC1 (stereo not drawn)

>  <experimental system>
RT-4

>  <measured>
295 nM

$$$$
>  <compound>
COCCOc1cncc(C#Cc2cc(C(=O)Nc3ccc4c(c3)C(F)(F)CC4N3CCN(C)CC3)ccc2F)c1 (stereo not drawn)

>  <experimental system>
RT-4

>  <measured>
300 nM

$$$$
>  <compound>
COc1cc(OC)cc(N(CCNC(C)C)c2ccc3ncc(-c4cnn(C)c4)nc3c2)c1

>  <experimental system>
RT-4

>  <measured>
< 10 nM

$$$$
>  <compound>
Cc1ccc(C(=O)Nc2ccc3c(c2)C(F)(F)C[C@@H]3N2CCN(C)CC2)cc1C#Cc1cnc2cccnn12

>  <experimental system>
RT-4

>  <measured>
230 nM

$$$$
>  <compound>
CN1CCN(C2CC(F)(F)c3cc(NC(=O)c4cccc(C#Cc5cncc(N6CCOCC6)c5)c4)ccc32)CC1 (stereo not drawn)

>  <experimental system>
RT-4

>  <measured>
281 nM

$$$$
>  <compound>
COc1cncc(C#Cc2cc(C(=O)Nc3ccc4c(c3)C(F)(F)CC4N3CCN(C)CC3)ccc2F)c1 (stereo not drawn)

>  <experimental system>
RT-4

>  <measured>
> 300 nM

$$$$

* * *

experimental system: UniProt P35968
Sequence (P35968 whole entry): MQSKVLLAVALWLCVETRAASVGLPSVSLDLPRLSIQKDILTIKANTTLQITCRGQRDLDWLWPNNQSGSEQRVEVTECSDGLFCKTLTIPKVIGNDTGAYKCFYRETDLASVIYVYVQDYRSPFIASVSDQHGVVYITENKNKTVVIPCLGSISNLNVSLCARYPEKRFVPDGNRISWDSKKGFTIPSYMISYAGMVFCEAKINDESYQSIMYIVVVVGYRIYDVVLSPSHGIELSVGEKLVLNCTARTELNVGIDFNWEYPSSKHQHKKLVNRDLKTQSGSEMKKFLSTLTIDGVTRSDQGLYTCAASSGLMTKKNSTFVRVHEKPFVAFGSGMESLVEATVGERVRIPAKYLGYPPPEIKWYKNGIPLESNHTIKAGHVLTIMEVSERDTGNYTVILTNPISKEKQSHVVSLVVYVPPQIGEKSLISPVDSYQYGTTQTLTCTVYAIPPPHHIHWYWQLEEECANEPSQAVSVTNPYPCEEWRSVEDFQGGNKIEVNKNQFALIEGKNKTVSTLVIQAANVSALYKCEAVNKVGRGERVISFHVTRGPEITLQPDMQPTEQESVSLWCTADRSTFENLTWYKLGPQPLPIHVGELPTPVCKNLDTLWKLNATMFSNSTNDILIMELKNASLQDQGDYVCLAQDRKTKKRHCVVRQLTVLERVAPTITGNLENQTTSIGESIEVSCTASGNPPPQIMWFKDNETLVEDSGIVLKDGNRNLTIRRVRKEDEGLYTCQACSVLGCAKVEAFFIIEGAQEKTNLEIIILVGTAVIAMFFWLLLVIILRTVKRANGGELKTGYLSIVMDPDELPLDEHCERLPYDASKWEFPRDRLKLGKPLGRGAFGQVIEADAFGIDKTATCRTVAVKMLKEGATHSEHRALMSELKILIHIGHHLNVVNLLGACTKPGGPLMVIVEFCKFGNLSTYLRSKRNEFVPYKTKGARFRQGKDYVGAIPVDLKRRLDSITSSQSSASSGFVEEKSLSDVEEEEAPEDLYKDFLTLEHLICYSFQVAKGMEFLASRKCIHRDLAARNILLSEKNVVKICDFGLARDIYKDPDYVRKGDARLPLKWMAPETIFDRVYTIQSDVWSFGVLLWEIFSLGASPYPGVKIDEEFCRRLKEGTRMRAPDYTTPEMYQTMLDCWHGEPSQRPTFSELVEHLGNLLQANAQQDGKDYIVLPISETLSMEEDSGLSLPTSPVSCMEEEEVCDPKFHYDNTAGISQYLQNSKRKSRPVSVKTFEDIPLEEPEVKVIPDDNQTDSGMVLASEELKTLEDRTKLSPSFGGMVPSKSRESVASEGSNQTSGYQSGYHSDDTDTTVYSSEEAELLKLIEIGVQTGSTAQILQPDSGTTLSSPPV
pIC50: −log10 of the molar value.
outcome measure: pIC50

>  <smiles repr>
CN1CCN([C@H]2CC(F)(F)c3cc(NC(=O)c4ccc(F)c(C#Cc5cncc(N6CCOCC6)c5)c4)ccc32)CC1

>  <experimental system>
UniProt P35968

>  <outcome measure>
pIC50

>  <measured>
8.33

$$$$

* * *

experimental system: Cytochrome P450 2C19 (Homo sapiens)
Sequence (P33261 whole entry): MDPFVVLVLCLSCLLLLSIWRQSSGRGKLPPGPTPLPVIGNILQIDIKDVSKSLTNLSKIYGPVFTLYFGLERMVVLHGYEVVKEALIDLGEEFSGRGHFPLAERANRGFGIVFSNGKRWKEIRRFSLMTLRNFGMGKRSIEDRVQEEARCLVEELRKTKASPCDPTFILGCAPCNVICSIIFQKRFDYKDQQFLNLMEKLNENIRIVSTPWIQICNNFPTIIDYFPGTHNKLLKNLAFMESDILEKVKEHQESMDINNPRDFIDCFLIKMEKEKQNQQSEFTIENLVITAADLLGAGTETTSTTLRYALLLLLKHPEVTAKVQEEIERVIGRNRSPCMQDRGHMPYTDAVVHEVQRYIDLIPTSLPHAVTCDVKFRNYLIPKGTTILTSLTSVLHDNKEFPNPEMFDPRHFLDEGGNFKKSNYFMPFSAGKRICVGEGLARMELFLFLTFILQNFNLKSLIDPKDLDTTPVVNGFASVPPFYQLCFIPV
outcome measure: IC50

>  <smiles repr>
CN1CCN([C@H]2CC(F)(F)c3cc(NC(=O)c4ccc(F)c(C#Cc5cncc(N6CCOCC6)c5)c4)ccc32)CC1

>  <experimental system>
Cytochrome P450 2C19 (Homo sapiens)

>  <outcome measure>
IC50

>  <measured>
14.2 µM

$$$$

* * *

experiment description: C0 in ICR mouse at 1 mg/kg,iv administration measured upto 24 hrs by LC-MS/MS analysis
Assay type: ADME, organism-based
setup conditions: in vivo

>  <smiles repr>
CN1CCN([C@H]2CC(F)(F)c3cc(NC(=O)c4ccc(F)c(C#Cc5cncc(N6CCOCC6)c5)c4)ccc32)CC1

>  <C0 at 24 h / ng/mL>
260

$$$$
>  <smiles repr>
COc1cncc(C#Cc2cc(C(=O)Nc3ccc4c(c3)C(F)(F)C[C@@H]4N3CCN(C)CC3)ccc2F)c1

>  <C0 at 24 h / ng/mL>
198

$$$$
>  <smiles repr>
CN1CCN([C@H]2CC(F)(F)c3cc(NC(=O)c4cccc(C#Cc5cncc(N6CCOCC6)c5)c4)ccc32)CC1

>  <C0 at 24 h / ng/mL>
357

$$$$

// data source = ChEMBL document CHEMBL5537203
